- assay.info: yeast display, Sf9 membrane polyspecificity reagent, FACS + sequencing; frameworks hold sequencing errors
readout.name: polyreactivity (PSR sort gate)

residue.sequence	result
QVQLVESGGGLVQAGCSLRLSCAASGRNFVHYAMGWYRQAPGKERDLVAAISWSGGNTYYADSVKGRFTISRDNAKNTVYLQMNSLKPEDTAVYYCARAPYYVASGHRRVLRPTYEYWGQGTQVTVSS	low polyreactivity
QVQLVESGGGLVQAGGSLRLSCAASGRIFPHNAMGWYRQAPGTERELVAAISSNVGSTYYADSVKGRFTISRDNAKNTVYFQMNSLKPEDTAVYYCAKYRYFAGDGDYWGQGTQVTVSS	low polyreactivity
QVQLVESGGGLVQAGGSLRLSCAASGNIIDANAMGWYRQAPGKERELVAAITSSGGSTYYADSVKGRFTISRDNANNTVYLQMNSLKPEDTAVYYCAKSHAIYYWWDESWGHGTQVTVSS	low polyreactivity
QVQLVESGGGLVQAGGSLRLSCAASGSIFASYAMGWYRQAPGKERELVATITQSGGRTYYADSVKGRFTISRDNAKNTVYLQMNSLKPEDTAVYYCARRYWGGGYRMGYWGQGTQVTVSS	high polyreactivity
QVQLVESGGGLVQAGGSLRLSCAASGSIFGDYVMGWYRQAPGKERELVAAITFGGGRTYYADSVKGRFTISRDNAKNTVYLQMNSLKPEDTAVYYCAVSRKGLGSVEYWGQGTQVTVSS	low polyreactivity
QVQLVESGGGLVQAGGSLRLSCAASGRTFQDNVMGWYRQAPGKETELVAAINTSSGSTYYADSVKGRFTISRDNAKNTVYLQMNSLKPEDTAVYYCFSYDYDYWGQGTQVTVSS	low polyreactivity
QVQLVESGGGLVQAGGSLRLTCAASGRIFTRYSMGWYRKAPGKEREFVAAITNSGASTYYADSVKGRFTISRDNAKITVYLQMNSLKPEDTAVYYCAGDGPYWWDYDYWGQGTQETVSS	high polyreactivity
QVQLVESGGGLVQAGGSLRLSCAASGNIFNYNAMGWYRQATGNERELVAAISFSGGSTYYADSVKARFTISRDNAQNTVYLQMNSLKPEDTAVYYCAKAERNYFEYWGQGTQVTVSS	high polyreactivity
QVQLVESGGGLVQAGGSLRLSCAASGITFGFYAMGWYRQAPGKERELVASITWRGGSTYYADSVKGRFTISRDNAKNTVYLQMNSLKPEDTAVYYCAAEQYVFRPRAQEITTYDYWGQGTQVTVTS	high polyreactivity
QVQLVESGGGLVQAGGSLRLSCAASGRIFRNYAMGWYRQAPGKERELVPAITRGGSTYYAVSVKGRFSISRDNAKNTVYLQMNSLKPEDNAVYYCNKAWPYSHPVQYHRSRSYDYWGQGTQVTVSS	high polyreactivity
QVQLQESGGGLEQAGGSLRPSCAASGSISDGVPMGWYRQAPGEERELVATTVLGATTNYADSVKGRFTISRGNAKNTVYLQMNSLKPEETAVYYCAAPLRYDKGFSYWGQGTQVTVSS	low polyreactivity
QVQLVESGGGLVQAGGSLRLSCPASGFIIRLYVMGWYRQAPGKERELVAAISSGGRTYYADSVKGRFTISRDNAKNTVYLQMNSLKPEDTAVYYCAAYVRGWGCDDFWGQGSQVTVSS	high polyreactivity
QVQLVESGGGLVQAGGSLRLSCAASGYIFTYNAMGWYRQAPGKERELVAAISSGGSTNYADSVKGRFTISRDNAKNTVYLQMNSLKPEDTAVYYCAAPVWTYDDYFSYSYSYGYWGQGTQVTVSS	low polyreactivity
QVQLVESGGGLVQAGGSLRLSCAASGFTFWLYAMGWYRHAPAKEREFVAAISTSGGSTYADSVKGRFTISRDNAKYTVYLQMNSLKPEDTAVYYCNAGYVLYYDYHLFYWGQGTQVTVSS	low polyreactivity
QVQLVDSGGGLVQAGGSLRLSCDASGSTFLYYAMGWYRQAPGKERELVARITSRFGRTYYADSVKGRFTISRDNAKNTVYLQMNSLKPEDTAVYYCAAYPDYSYYYWGHGTQVTVSS	high polyreactivity
QVQLVESGGGLVQAGGSLRLSCAASGSIFGLYAMGWYRQAPGKERELVAAINQSGGSTSYADSVKGRFTISRDNAKNTVYLQMNSLKPEDNAVYYCNRVRLNTEGFDYWGQGTQVTVSS	low polyreactivity
QVQLVESGGGLVQAGGSLRLSCAASGFTFRDYAMGWYRQAPGKERELVAAISFSGGRTFYADSVKGRFTISRDNAKNTVYLQMNSLKPEDTAVYYCNAQYLTYRYYPRRNLDYWGQGTQVTVSS	high polyreactivity
QVQLVESGGGLVQAGGSLRLSCAASGRIFGLNTMGRYRQAPGKERELVAAITSSAGSTYYADSVKGRCTISRDNAKNTVYLQMNSLKPEDTAVYYSAARVSYLGSFTSQRYYYWGLGTQVTVSS	high polyreactivity
QVQLVESGGGLVQAGGSLRLSCAASGSTIRWYAMGWDRQAPGKERELVASITWSGGGTYYADSVKGRFTISRDNAKNTVYLQMNSLKPEDTAVYYCNRRTWRYETRGDDYWGQGTQVTVSS	high polyreactivity
QVQLVESVGGLVQAGGSLRLSCAASGRTFRYYAMGWYRQAPGKERELVAAISKTGGSTYYADSVKGRFTISRDNAKNTVYLQMNSLKPEDTAVYYCAAQSGWGYSTYYYWGQGTQVTVSS	high polyreactivity
QVQLVESGGGLVQAGGSLRLSCAASGFIFPWYSMVWSRQAPGKERELVAAISRGGRTNYADSVKGRFTISRDNAKNTVYLQMNSLIPEDTAVYYCAKKYYLSGSRADDSWGQGTQVTVSS	high polyreactivity

====

- assay.info: yeast display, Sf9 membrane polyspecificity reagent, FACS + sequencing; frameworks hold sequencing errors

residue.sequence	polyreactivity (PSR sort gate)
QVQLVESGGGLVQAGGSLRLSCAASGSTFAANAMGWYRQAPGKERELFAVIRRGGSTTYADSVKGRFTISRDNAKNTVYLQMNSLKPEDTEVYYCNARVTLGRPLFTYLVRYEYWGQGTQVTVSS	high polyreactivity
QVHLVESGGGLVQAGGILRLSCAASGRTFPGYAMGWYRQAPGKERELVAAITYTGGDTHYADSVKGRFTISRDNAKNTVYLQMNSLKPEDTAVYYCAAVYYRGIQSYDYWGQGTQVTVSS	low polyreactivity
QVQLVESGGGLVQAGGSLRLSCAASGSIFGANVMGWYRQAPGKERELVAGITGSGGSTYADSVKGRFTISRDNAKNTVYFQMNSLKPEDTAVYYCNADTQFALVADFDYWGQGTQVTVSS	low polyreactivity
QVQLVESGGGLVQAGGSLRLSCAASGFIFWLYAMGWYIQAPGKERELVASINWSGGDTYYADSVKGRFTISRDNAKNTFYLQMNSLKPEDTAVYYCTAKVLDSKSSFDYWGKGTQVTVSS	low polyreactivity
QVQLVESGGGLVQAGGSLRVSCAASGFIFCGYARGWYRQAPGKERELDAAISSSGGSTYYADSVKGRFTISRDNAKNTDYLQMNSLKPEDTAVYYCAKVGRSRRYYYWGQGTQVTVSS	high polyreactivity

====

- assay.info: yeast display, Sf9 membrane polyspecificity reagent, FACS + sequencing; frameworks hold sequencing errors

residue.sequence	polyreactivity (PSR sort gate)
QVQLVESGGGLVQAGGSLRLSCAASGYIFNGNAMGWYRQAPGKERELVATITRRGGSTYYADSVKGRFTISRDNAKNTVYLQMNSLKPEDTAVYYCNKRDYSGDYYGPLDYWGQGTQVTVSS	high polyreactivity
QVQLVESGGGLVQAGGSLRLSCAASGRTFTVNAMGWYRQAPGKEREFVATISYRGGSTYADSVKGRFTISRDNAKNNVYLQMNSLKPEDTAVYYCAARSFWPYYGGDYDYWGQGNQVTVSS	high polyreactivity
QVQLVESAGGLVQAGGSLRLSCAASGFTFGDNAMGWYRQAPGKERELVAAITSSGSTNYADSVKGRFTISRDNAKNTVYLQMNSLKPEDTAVYYCNAEDSVDAPVYKDLGSEYDSWGQGTQVTVSS	low polyreactivity
QVQLVESGGGLVQAGGSLRLTCAASGRIFSNDKGWYRQAPGKERELVAAITWSGGTTHYADSVKGRFTISRDNAKNTVYLQMNSLKPEDTAVYYCARAGGHAYSYWGQGTQVTVSS	low polyreactivity
QVQLVESGGGLVQAGGSLRLSCAASGYTVWGYAMGWYRQAPGKERELVADITISGGSTYYADSVKGRFTISRDNAKNTVYLQMNSLKPDDSAVYYCAASRAFSWWLSYDYWGQGTQVTVSS	high polyreactivity
QVQLVESGGGLVQAGGSLRLSCAASGFIFRYNTMGWYRQAPGKQRELVATITSGGSTYYADSVKGRFTISRDNAKNTFYLQMNSLKPEDTAVYYFAKVRDVLWRFNYWGQGTQVTVSS	high polyreactivity
QVQLQESGSGLVQAGGSLRLSCAAIGAIFPAYLMGWYRQAPGKERELVAGISYGSITYCADSVKGRFNISRDNAKNTVYLQMNSLKPEYTAVYYCAVWRPGGDEYYYWGQGTQVTVSS	low polyreactivity
QVQLVESGGGLVQAGGSLRLSCAASGITFYYNAMGWYRQAPGKERELVAAIRSAGSTYYADSVKGRFTISRDNAKNSVYVQMNSLKPEDTAVDYWGQGTQVTVSS	low polyreactivity
QVQLVESGGGLVQAGGSLRLSCAASGLIFGYNAMGWYRQAPGKERELVAAISWSGGRTYYADSVKGRFTISRDNAKNTVYLQMNSLKPEDTAVYYCAAVVRHSYFRDDHWGQGTQVTVSS	high polyreactivity
QVQLVESGGGLVQAGGSLRLSCAASGRTFSVNAMGWYRKAPGKERELVAAISWSTGSTYYADSVKGRFTISRDNAKNTVSLQMNSLKPEDTAVYYCAKLYEYRRSRYRTYGYWGQGTQVTVSS	high polyreactivity
QVQLVESGGGLVQAGGSLRLSCAASGRIFWYYDMGWYRQAPGKERELVAAITSGGRTYYADSVKGRFTISRDNAKNTVYLQMNRLKPEDTAVYYCAAEGFYTTGSPYSGGLDYWGQGTQVTVSS	low polyreactivity

Reference source: the nanobody polyreactivity screen of Harvey et al. (2022)
